% reduction in OD overview
# target_system: pre-existing anti-scFv903 antibodies in human serum H3 (human)
# procedure_summary: competition ADA bridging ELISA, 100 mcg/ml competitor
Report the figure in % without appending any unit label.

Field: example entries. Status: answers known.
scFv 961 (scFv) scFv: EIVMTQSPSTLSASVGDRVIITCQASEIIHSWLAWYQQKPGKAPKLLIYLASTLASGVPSRFSGSGSGAEFTLTISSLQPDDFATYYCQNVYLASTNGANFGQGTKLTVLGGGGGSGGGGSGGGGSGGGGSEVQLVESGGGSVQPGGSLRLSCTASGFSLTDYYYMTWVRQAPGKGLEWVGFIDPDDDPYYATWAKGRFTISRDTSKNTVYLQMNSLRAEDTATYYCAGGDHNSGWGLDIWGQGTTVTVSS | -1.7
scFv105 (scFv) scFv: DIVMTQSPSSLSASVGDRVTLTCTASQSVSNDVVWYQQRPGKAPKLLIYSAFNRYTGVPSRFSGRGYGTDFTLTISSLQPEDVAVYYCQQDYNSPRTFGQGTKLEVKRGGGGSGGGGSGGGGSSGGGSQVQLVQSGAEVKKPGASVKVSCTASGYTFTHYGMNWVRQAPGKGLEWMGWINTYTGEPTYADKFKDRFTFSLETSASTVYMELTSLTSDDTAVYYCARERGDAMDYWGQGTLVTVSS | -58.8
scFv 903 (scFv) scFv: EIVMTQSPSTLSASVGDRVIITCQASEIIHSWLAWYQQKPGKAPKLLIYLASTLASGVPSRFSGSGSGAEFTLTISSLQPDDFATYYCQNVYLASTNGANFGQGTKLTVLGGGGGSGGGGSGGGGSGGGGSEVQLVESGGGLVQPGGSLRLSCTASGFSLTDYYYMTWVRQAPGKGLEWVGFIDPDDDPYYATWAKGRFTISRDTSKNTVYLQMNSLRAEDTAVYYCAGGDHNSGWGLDIWGQGTLVTVSS | -79.9

Consider the additional binder presented here.
So what does the record say about % reduction in OD for scFv 791 (scFv) scFv: MEIVMTQSPSTLSASLGDRVIITCQSSQSVYGNIWMAWYQQKSGKAPKLLIYQASKLASGVPSRFSGSGSGAEFSLTISSLQPDDFATYYCQGNFNTGDRYAFGQGTKLTVLGGGGGSGGGGSGGGGSGGGGSEVQLVESGGGLVQPGGSLRLSCTASGFTISRSYWICWVRQAPGKGLEWVACIYGDNDITPLYANWAKGRFPVSTDTSKNTVYLQMNSLRAEDTAVYYCARLGYADYAYDLWGQGTLVTVSS ?
-85
